Assay: Human HepG2 cell viability assay in 384 well format
Format: toxicity, cell-based
Design: dose 125 nL, time 70.5 hour; concentration not given beside the values
Conditions: HepG2 cells, read-out: Inhibition
parameter: cytotoxicity at 70.5 h (%)

{"compound": "CCN1CC2(CC1=O)CN(C(=O)c1ccsc1)CCN(C(=O)N(C)C)C2 (centres undefined)", "quantityUnit": "%", "obsValue": 3.77}
{"compound": "CSc1ccccc1C(=O)N1C[C@H]2CC[C@@H]1CN(C(=O)C1CCC1)C2", "quantityUnit": "%", "obsValue": -4.19}
{"compound": "COCCNc1nc2c(c(N3CCn4nc(C)cc4C3)n1)CCNCC2", "quantityUnit": "%", "obsValue": -8.96}
{"compound": "Cc1n[nH]c(C)c1CC(=O)N1CCC(O)(CN2CCOCC2)C1 (centres undefined)", "quantityUnit": "%", "obsValue": -12.6}
{"compound": "CSc1ccc(C2CC(=O)Nc3c2c(=O)[nH]n3C(C)C)cc1 (centres undefined)", "quantityUnit": "%", "obsValue": -9.28}
{"compound": "Cc1cccc(CN2CC[C@H]3[C@H]2CCN3Cc2cnn(C)c2)n1", "quantityUnit": "%", "obsValue": 30.5}
{"compound": "Cc1nn(C)c(C)c1C1CCCN1CCCc1nc2ccccc2o1 (centres undefined)", "quantityUnit": "%", "obsValue": -8.55}
{"compound": "CCc1c(C(=O)N2CCOC(C)(C)C2)cnn1-c1ccccn1", "quantityUnit": "%", "obsValue": -2.04}
{"compound": "Cc1nc(O)c2c(n1)CCN(Cc1cc(C)sc1C)CC2", "quantityUnit": "%", "obsValue": 23.6}
{"compound": "COc1c(C)cc(CNCc2ccnc(N3CCOCC3)c2)cc1C", "quantityUnit": "%", "obsValue": 2.82}
{"compound": "CN1CCC(N[C@@H]2CO[C@H](CNC(=O)C3CCCC3)[C@H]2O)CC1", "quantityUnit": "%", "obsValue": -3.54}
{"compound": "CCn1ccnc1CN1CCN(CCOc2ccc(C#N)cc2)CC1", "quantityUnit": "%", "obsValue": -4.7}
{"compound": "CCOCc1ccc(NC(=O)C(C)C)cc1", "quantityUnit": "%", "obsValue": 19.1}
{"compound": "CC1COCCN1C(=O)COc1ccc(Oc2ccccn2)cc1 (centres undefined)", "quantityUnit": "%", "obsValue": 1.4}
{"compound": "CC(O)CN1CCC(CNCc2cccc(OC(F)(F)F)c2)CC1 (centres undefined)", "quantityUnit": "%", "obsValue": 5.77}
{"compound": "c1cc(CN2CCN(Cc3ccon3)C3(CCCCC3)C2)no1", "quantityUnit": "%", "obsValue": 4.47}
{"compound": "CN1CCN(C(C)(C)CNC(=O)C2CCCN2S(C)(=O)=O)CC1 (centres undefined)", "quantityUnit": "%", "obsValue": -6.25}
{"compound": "Cc1cccc(C)c1NC(=O)CNC(C)Cc1ccsc1 (centres undefined)", "quantityUnit": "%", "obsValue": 32.9}
{"compound": "CN(C)c1nccc(C2CCCCN2Cc2cnn3cccnc23)n1 (centres undefined)", "quantityUnit": "%", "obsValue": -7.45}
{"compound": "CCn1cc(CN2CCC(c3ccncc3)CC2)cc1C#N", "quantityUnit": "%", "obsValue": -5.65}
{"compound": "CC(NC(=O)CCC1CCCCC1)c1nnc2n1CCC2 (centres undefined)", "quantityUnit": "%", "obsValue": -4.91}
{"compound": "CSCc1noc(C2CCC(=O)N(CCc3ccccc3)C2)n1 (centres undefined)", "quantityUnit": "%", "obsValue": -13.9}
{"compound": "Cc1nc(CN2C[C@@H]3CN(C(=O)C4(C#N)CC4)C[C@@H]3C2=O)cs1", "quantityUnit": "%", "obsValue": -2.26}
{"compound": "CCOCC(O)CN1CCN(C(=O)c2ccc(OC)cc2)CC1 (centres undefined)", "quantityUnit": "%", "obsValue": -9.9}

----------
Test: Human HepG2 cell viability assay in 384 well format
Assay type: toxicity, cell-based
Set-up: dose 125 nL, time 70.5 hour; concentration not given beside the values
Details: HepG2 cells, read-out: Inhibition
cytotoxicity at 70.5 h values, listed per item

{"compound": "CN(Cc1cccc(-n2cccn2)c1)C(=O)c1ccnc(N)c1", "quantityUnit": "%", "cytotoxicity at 70.5 h": 3.21}
{"compound": "COCc1noc(C2(c3ccc(Cl)cc3)CCOCC2)n1", "quantityUnit": "%", "cytotoxicity at 70.5 h": -6.8}
{"compound": "CCC(C)(NCC(=O)Nc1nc(C)cs1)c1nc(C)cs1 (stereo unspecified)", "quantityUnit": "%", "cytotoxicity at 70.5 h": -0.105}
{"compound": "CCN1CCN(C)C2(CCN(Cc3cccc(C)n3)CC2)C1=O", "quantityUnit": "%", "cytotoxicity at 70.5 h": -9.88}
{"compound": "COc1ncccc1CN1CCc2[nH]nc(C(=O)N3CCCC3C)c2C1 (stereo unspecified)", "quantityUnit": "%", "cytotoxicity at 70.5 h": -3.57}
{"compound": "Cc1c(CN2CCCC(C(=O)c3ccc(C(C)(C)C)cc3)C2)cnn1C (stereo unspecified)", "quantityUnit": "%", "cytotoxicity at 70.5 h": -4.49}
{"compound": "CC(NCc1ccc(F)cc1)c1ccc2[nH]c(=O)[nH]c2c1 (stereo unspecified)", "quantityUnit": "%", "cytotoxicity at 70.5 h": 0.625}
{"compound": "CN(C)c1ncccc1NC(=O)C1CN(Cc2ccccc2)CCO1 (stereo unspecified)", "quantityUnit": "%", "cytotoxicity at 70.5 h": -2.14}
{"compound": "Cc1ccc2c(c1)nc1n2[C@@H](CNC(=O)c2cncnc2)COC1", "quantityUnit": "%", "cytotoxicity at 70.5 h": -2.41}
{"compound": "OCCNc1nc(NCc2cccnc2)nc2nccnc12", "quantityUnit": "%", "cytotoxicity at 70.5 h": 16.3}
{"compound": "O=C(C1CC1)N1C[C@H]2CCCN(S(=O)(=O)c3cccc(F)c3)[C@H]2C1", "quantityUnit": "%", "cytotoxicity at 70.5 h": 3.8}

----------
cytotoxicity at 70.5 h values, listed per item
Assay: Human HepG2 cell viability assay in 384 well format
Format: toxicity, cell-based
Set-up: dose 125 nL, time 70.5 hour; concentration not given beside the values
Conditions: HepG2 cells, read-out: Inhibition
parameter: cytotoxicity at 70.5 h

{"compound": "NC(=O)c1ccc(C2CCCN2C(=O)CCn2nnc3ccccc32)s1 (stereo unspecified)", "parameter": "cytotoxicity at 70.5 h", "obsValue": "-4.98%"}
{"compound": "CCN(CC)CCCNC(=O)C(C)n1cc(Br)cn1 (stereo unspecified)", "parameter": "cytotoxicity at 70.5 h", "obsValue": "-1.37%"}
{"compound": "O=C(NC1CC(F)(F)C1)[C@]12COC[C@H]1CN(Cc1ccccc1)C2", "parameter": "cytotoxicity at 70.5 h", "obsValue": "-9.36%"}
{"compound": "O=C1CCCC2(CCN(C(=O)c3cnccn3)CC2)N1", "parameter": "cytotoxicity at 70.5 h", "obsValue": "-4.91%"}
{"compound": "CN(Cc1cccc(F)c1)C(=O)c1ccncc1Cl", "parameter": "cytotoxicity at 70.5 h", "obsValue": "-18.9%"}
{"compound": "CCOc1ccccc1C(CC(=O)Nc1ccccc1)NC(C)=O (stereo unspecified)", "parameter": "cytotoxicity at 70.5 h", "obsValue": "-6.59%"}

----------
Assay: Human HepG2 cell viability assay in 384 well format
Assay type: toxicity, cell-based
Set-up: dose 125 nL, time 70.5 hour; concentration not given beside the values
Details: HepG2 cells, read-out: Inhibition

{"molecule": "Cc1nc(CN2CCCC(NCCCc3ccccc3)C2)no1 (stereo unspecified)", "cytotoxicity at 70.5 h [%]": -10.6}
{"molecule": "O=C(NCc1ccccc1)c1nn(C2CCS(=O)(=O)C2)c2c1CCCC2 (stereo unspecified)", "cytotoxicity at 70.5 h [%]": 4.17}
{"molecule": "O=C(C1CCOCC1)N1CC[C@H](O)[C@@H]1Cc1cccnc1", "cytotoxicity at 70.5 h [%]": -0.0587}
{"molecule": "CNC(=O)C1Cn2ccnc2C2(CCN(Cc3cccnc3)CC2)O1 (stereo unspecified)", "cytotoxicity at 70.5 h [%]": 2.48}
{"molecule": "CCc1nc(CN2CCCN(C(=O)c3ccco3)CC2)cs1", "cytotoxicity at 70.5 h [%]": 16.2}
{"molecule": "CN(Cc1ccsc1)C(=O)Nc1ccc(N(C)C)nc1", "cytotoxicity at 70.5 h [%]": -2.83}

----------
Test: Human HepG2 cell viability assay in 384 well format
Type: toxicity, cell-based
Design: dose 125 nL, time 70.5 hour; concentration not given beside the values
Settings: HepG2 cells, read-out: Inhibition
parameter: cytotoxicity at 70.5 h (%)

{"compound": "Cc1cc(O)cc(=O)n1CCCC(=O)Nc1n[nH]c2ccccc12", "quantityUnit": "%", "obsValue": -11.5}
{"compound": "CC(NCC(F)(F)F)c1ccc(S(C)(=O)=O)c(F)c1 (stereo unspecified)", "quantityUnit": "%", "obsValue": 12.5}
{"compound": "CC(=O)NC[C@H]1COCc2nc3cc(S(C)(=O)=O)ccc3n21", "quantityUnit": "%", "obsValue": -0.348}
{"compound": "CC(C)C(C)NC(=O)c1ncn2c1CN(C)S(=O)(=O)c1ccccc1-2 (stereo unspecified)", "quantityUnit": "%", "obsValue": -2.58}
{"compound": "COc1cccc(-c2noc(-c3ccc(N4CC(N)C4)nc3)n2)c1OC", "quantityUnit": "%", "obsValue": -0.582}
{"compound": "COc1ncccc1C(=O)N1CC(c2nc(-c3ccccn3)no2)C1", "quantityUnit": "%", "obsValue": 19.5}
